Where these numbers come from: paper PMC9791135

# target-or-system: α-syn (Homo sapiens)
# Construct: made in house; host or cells: Escherichia coli BL21 (DE3), plasmid pET11-D
# test-summary: ATR–FTIR of fibrillated α-syn–peptide samples
# Assay type: biochemical
# recorded-conditions: fibrillated samples after washing; versus α-syn alone
parameter: ATR–FTIR (amyloid structures)

* MKGLSKAKEGVVAA [p5] | ↓ amyl
* KEGVVAAAEKTKQG [p12] | ↓ amyl

---

# target-or-system: α-syn (Homo sapiens, UniProt P37840)
# Construct: made in house; host or cells: Escherichia coli BL21 (DE3), plasmid pET11-D
# test-summary: Far-UV CD of fibrillated α-syn–peptide samples
# Type: biochemical
# recorded-conditions: fibrillated samples after washing, signal at 218 nm; versus α-syn alone
# Procedure: To analyze the secondary structure of the final aggregates, we recorded far-UV CD and attenuated total reflectance (ATR)–FTIR spectra for fibrillated samples after washing to remove free α-syn and peptides. […] To remove free α-syn and peptides, fibrillated samples were centrifuged (13,000 rpm, 15 min). […] The buffer spectrum was subtracted, and the results were expressed as mean residue ellipticity [θ] […]
parameter: Far-UV CD (β-sheet structures)

- MKGLSKAKEGVVAA [p5]: ↓β
- RQIKIWFQNRRFKWKK [p222, penetratin with modulated hydrophobicity]: ↓↓↓β
- SASDSRTFKSSGG [p162]: ↓β
- RQIKIWFQARRMKWKK [p194, Ala scan variant of penetratin]: ↓↓↓β
- KEGVVAAAEKTKQG [p12]: ↓β

---

# target-or-system: α-syn (Homo sapiens, UniProt P37840)
# Construct: made in house; host or cells: Escherichia coli BL21 (DE3), plasmid pET11-D
# test-summary: ATR–FTIR of fibrillated α-syn–peptide samples
# Assay type: biochemical
# recorded-conditions: fibrillated α-syn samples in the presence of peptides
parameter: Amount of amyloid structures (ATR–FTIR), in words

- RQIKIWFQNRRFKWKK [p222, penetratin with modulated hydrophobicity]: decreased
- RQIKIWFQARRMKWKK [p194, Ala scan variant of penetratin]: decreased
